Tested on: HEK-293T
run_description: Incucyte cell viability with HEK293T; note: filed as whole numbers so only -1 and 0 and 1 occur
Assay type: toxicity, cell-based
conditions: human, 18 h, 10 µM, compound concentration 10 uM, replicate number 1, timepoint 18 hours
Here the recorded Growth Rate is given for each entry.
Provide a numeric answer; units are not to be included.

Worked set:
{"compound": "Cl.Cl.Cl.c1ccc(N2CCN(Cc3nc4ccccc4[nH]3)CC2)nc1", "assay_system": "HEK-293T", "Growth Rate": 1}
{"compound": "O=C(Nc1ccc(Oc2ccc(F)cc2)cc1)N1CCc2ncccc2[C@H]1c1ccc(F)cc1 [BAY-897]", "assay_system": "HEK-293T", "Growth Rate": 0}
{"compound": "Cc1noc([C@H]2C[C@@H](c3ccc(C(F)(F)F)cc3)CN(C(=O)N3CCS(=O)(=O)C3)C2)n1 [BAY-448]", "assay_system": "HEK-293T", "Growth Rate": 0}

Turning to the following compound.
Data request: Tell us which Growth Rate value is on record for CNC(=O)Nc1ccc2c(c1)[C@@]1(CC2)OC(=O)N(CC(=O)N(Cc2ccc(F)cc2)[C@@H](C)C(F)(F)F)C1=O [A-486]
Data returned: 0
